Hello, the source for this data is patent US8334280B2, in case you need it.

# System: UniProtKB P03372
# Sequence (P03372 whole entry): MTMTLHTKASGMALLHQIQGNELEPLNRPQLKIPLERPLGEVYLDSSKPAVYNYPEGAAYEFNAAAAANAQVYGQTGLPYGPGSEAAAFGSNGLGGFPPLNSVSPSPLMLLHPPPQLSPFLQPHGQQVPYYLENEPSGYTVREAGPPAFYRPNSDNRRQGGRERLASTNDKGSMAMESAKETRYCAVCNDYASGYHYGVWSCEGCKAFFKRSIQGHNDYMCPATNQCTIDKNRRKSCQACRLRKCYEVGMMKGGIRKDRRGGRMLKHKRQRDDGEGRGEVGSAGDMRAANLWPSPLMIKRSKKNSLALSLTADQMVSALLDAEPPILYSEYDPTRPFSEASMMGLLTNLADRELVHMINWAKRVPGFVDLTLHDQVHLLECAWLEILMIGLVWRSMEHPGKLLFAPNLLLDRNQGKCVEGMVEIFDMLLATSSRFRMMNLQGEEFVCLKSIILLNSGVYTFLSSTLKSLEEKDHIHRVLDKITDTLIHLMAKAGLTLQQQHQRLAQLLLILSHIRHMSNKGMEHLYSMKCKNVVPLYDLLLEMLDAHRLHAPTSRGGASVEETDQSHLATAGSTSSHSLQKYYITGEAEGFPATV
# Test Summary: reporter assay (luciferase) in COS-7 cells transfected with human ERα
# Test Settings: COS-7 cells, 24 h with compound, luciferase; read-out: EC50 of tested ligands in the reporter assays, ER α
# Procedure: The activity of some of the selected novel ligands of estrogen receptors was determined in reporter assays with the COS-7 cells. […] COS-7 cells were transfected with the expression vector encoding human ERα or ERβ and with the reporter vector containing one estrogen responsive element followed by the minimal thymidine kinase promoter from the herpes simples virus. […] The luminescence was measured using the combined spectrophotometer ENVISION (PerkinElmer) with 1 s signal integration. […]
Let's look at some compounds and their measured EC50.
Measure Name: EC50 (nM)

{"columns": ["Structure String", "Val"],
 "data": [
  ["CC(=O)C1(C(C)=O)Cc2ccc([C@]3(O)CC[C@H]4[C@@H]5CCc6cc(O)ccc6[C@H]5CC[C@@]43C)cc2C1", 19],
  ["C[C@]12CC[C@@H]3c4ccc(O)cc4CC[C@H]3[C@@H]1CC[C@@]2(O)c1ccc2c(c1)CCC2", 21.1],
  ["CCOC(=O)C1(C(=O)OCC)Cc2ccc([C@]3(O)CC[C@H]4[C@@H]5CCc6cc(O)ccc6[C@H]5CC[C@@]43C)cc2C1", 3.85]
]}

* * *

Let's look at some compounds and their measured pEC50.
# System: human ERβ (Homo sapiens)
# Construct: expressed in transfected cells; host or cells: COS-7
# Sequence (Q92731 whole entry): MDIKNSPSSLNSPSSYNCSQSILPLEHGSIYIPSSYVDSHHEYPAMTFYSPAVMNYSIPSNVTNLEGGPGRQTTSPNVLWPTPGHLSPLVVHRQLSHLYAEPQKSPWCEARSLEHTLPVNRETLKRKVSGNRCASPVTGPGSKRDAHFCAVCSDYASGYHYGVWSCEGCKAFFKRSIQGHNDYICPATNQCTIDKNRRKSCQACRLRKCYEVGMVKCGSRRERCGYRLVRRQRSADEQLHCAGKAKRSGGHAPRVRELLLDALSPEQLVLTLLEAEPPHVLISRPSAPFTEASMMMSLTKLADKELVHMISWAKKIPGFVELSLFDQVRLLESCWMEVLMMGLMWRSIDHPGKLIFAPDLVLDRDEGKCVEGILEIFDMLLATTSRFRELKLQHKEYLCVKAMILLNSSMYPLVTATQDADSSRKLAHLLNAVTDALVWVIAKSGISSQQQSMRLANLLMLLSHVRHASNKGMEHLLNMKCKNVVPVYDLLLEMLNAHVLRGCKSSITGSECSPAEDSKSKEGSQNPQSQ
# Test Summary: reporter assay (luciferase) in COS-7 cells transfected with human ERβ
# Format: cell-based
# Test Settings: COS-7 cells, 24 h with compound, luciferase; read-out: EC50 of tested ligands in the reporter assays, ER β
pEC50: −log10 of the molar value.

{"columns": ["Compound", "pEC50"],
 "data": [
  ["C[C@]12CC[C@@H]3c4ccc(O)cc4CC[C@H]3[C@@H]1CC[C@@]2(O)c1ccc2c(c1)CCC2", 8.97],
  ["CCOC(=O)C1(C(C)=O)Cc2ccc([C@]3(O)CC[C@H]4[C@@H]5CCc6cc(O)ccc6[C@H]5CC[C@@]43C)cc2C1 (stereo partly drawn)", 7.84],
  ["CCOC(=O)C1(C(=O)OCC)Cc2ccc([C@]3(O)CC[C@H]4[C@@H]5CCc6cc(O)ccc6[C@H]5CC[C@@]43C)cc2C1", 7.71],
  ["CC(=O)C1(C(C)=O)Cc2ccc([C@]3(O)CC[C@H]4[C@@H]5CCc6cc(O)ccc6[C@H]5CC[C@@]43C)cc2C1", 7.22],
  ["Cc1ccc(S(=O)(=O)N2Cc3ccc([C@]4(O)CC[C@H]5[C@@H]6CCc7cc(O)ccc7[C@H]6CC[C@@]54C)cc3C2)cc1", 7.20],
  ["CCOC(=O)C1(C#N)Cc2ccc([C@]3(O)CC[C@H]4[C@@H]5CCc6cc(O)ccc6[C@H]5CC[C@@]43C)cc2C1 (stereo partly drawn)", 7.89]
]}
